Assignment: determine reported folding stability dG unfold for the given sequences.
experiment: folding stability dG unfold (combined trypsin and chymotrypsin); higher = more stable
Use kcal/mol as the unit, but write only the number.

# query: folding stability dG unfold of entry SAKVVIIKVKSPEELKAAIEELKKKLPEGAVIYIVNEDGSVYKITFDKKTGKVKIEKVKSLEELKKLLKSAG [r14_913_TrROS_Hall] 3.47

# query: folding stability dG unfold of entry SAGGSAGGKEVKVTLEYDEETGTLTLTVETPDGYVFKLEITFEKDEDGNLKVTIKLEVIPLEDLSAGGSAGG [r6_537_TrROS_Hall] 4.39

# query: folding stability dG unfold of entry SAGGSAGGSAGSSMTTVTVTITDTGSGKTTTTELDVPVSEVQAVIDELSPSPTLTITVVQSAGGSAGGSAGG [r17_50_JUSTAS] 1.64

# query: folding stability dG unfold of entry SMTLPANAKAKVTVLVLFYDPETGEATLVKVDYTATFKPDDKGNLVVEVEPSKIEFIGPISLEEAKKIAGSA [r9_423_TrMRF] 2.55

# query: folding stability dG unfold of entry SAGGSAGGSAGGTGPPPVKTLVIVANWTEEQAEALKKAFPDQEVTVYEIPGLPKTVAVVSSAGGSAGGSAGG [r17_254_TrMRF] 1.16

====

assay: folding stability dG unfold from chymotrypsin proteolysis; higher = more stable
readout-label: folding stability dG unfold (kcal/mol)
Use kcal/mol as the unit, but write only the number.

# query: folding stability dG unfold of entry SAGGSAGMIEVEIRPTPEGGYEVLVKFYGPGGVEVEEKKYRFGSEEEAKKFLEELAKKNGYSVKIRSAGGSA [r15_242_JUSTAS] 3.74

# query: folding stability dG unfold of entry SAGGSAGGNTIELPLPNGMELEIPVQKNPEGYYQVNIERYDPDDGKKKEIPFTMPAEDIKDFLKSAGGSAGG [r6_859_TrROS] -0.205

# query: folding stability dG unfold of entry SAGKITLDGFTLDGEQTLTLTVEVPAPGGGTRTETFTATVTFDPETGTAHVPVTLPNGEELPFTFKVDASAG [r5_743_TrMRF] 1.52

# query: folding stability dG unfold of entry SAGGSAGGGGMMKTITIPLEELKAKLAKETGKPLTIEEIKEALKKEGIKLLSVDKEKGTITISESAGGSAGG [r6_767_JUSTAS] 1.73

====

test: folding stability dG unfold from chymotrypsin proteolysis; higher = more stable
readout-label: folding stability dG unfold (kcal/mol)
Use kcal/mol as the unit, but write only the number.

# query: folding stability dG unfold of entry MVELVEVTRENGLVTVTVANPIPGATLTVEVRDPEGKVLASSTSPSPTVTVTAEIPPDEDFSVTVTQTPPAS [r1_382_JUSTAS] 3.99

# query: folding stability dG unfold of entry SAGGSAGGSAGGSKFLVKTSVEVFKNPVGGNRYGAKITTLAVNPDTNEVTLSESYLPLDLSAGGSAGGSAGG [r7_216_TrMRF] 0.842

# query: folding stability dG unfold of entry DYKIKIPVARFPDGYWYIRAEIEDPDGETHEYEYPIPMPPGDTFDIDLPEDEPYKIKKIWIYHNGKPQPITS [r1_70_TrROS] 1.36

====

assay: folding stability dG unfold (combined trypsin and chymotrypsin); higher = more stable
readout-label: folding stability dG unfold (kcal/mol)
Use kcal/mol as the unit, but write only the number.

# query: folding stability dG unfold of entry SMKVEIPPELVEAIEKALAEKKPGEEVEIEFEHPDGPLIRVRIEKDGRVRIEVFEHPDKLIAEFEFEPKPSA [r9_132_TrMRF] 3.14

# query: folding stability dG unfold of entry SAGGSAGGSAGGNPPDWKPVGEEEFPIPNPNGMQIKISVWTIRAPDDGKSASFIDIEMYPSAGGSAGGSAGG [r7_546_TrROS] 1.58

# query: folding stability dG unfold of entry SAGGSAGGSAGGSPVIFVDPVEGRARVLLAAPAPNPDGEPGGLGLAEVEFEVGDVRLLLSAGGSAGGSAGGS [r4_10_TrMRF] -0.00848

====

Assignment: determine reported folding stability dG unfold for the given sequences.
assay: folding stability dG unfold (combined trypsin and chymotrypsin); higher = more stable
Use kcal/mol as the unit, but write only the number.

# query: folding stability dG unfold of entry SAGGSAGGSMTLIGTTTLPSPDGSLVTVDTYKVPGSDELVAKVTTLNGTTWTTETRPLSEFLKSAGGSAGGS [r12_1063_JUSTAS] 0.646

# query: folding stability dG unfold of entry WKIVEITDIEPDPDGWLEIKITIEPPEPGDPIKIMIFHPNQFHEFEIDPESPEIEIRIPPGFDNLHIFIYVS [r1_428_TrROS] 3.9

# query: folding stability dG unfold of entry SAGGSAGGSAGGMTLTITDDDPSVGPRTFTLTEPGSSKTTTLTSAEMEALKAAGPVTVAGSAGGSAGGSAGG [r7_452_JUSTAS] -0.209

====

assay: folding stability dG unfold from trypsin proteolysis; higher = more stable
Record True whenever folding stability dG unfold is at 2 kcal/mol or higher; record False when lower.

Would you say SAGAMQTVTLPTPDGRTVTLRHPGISVSVDPEKRTVTISVPSLGKVYTLTFAPDGTVAELSEEPIPELESAG [r5_342_JUSTAS] shows folding stability dG unfold at minimum 2 kcal/mol? False

Would you say SAGMYIEGSLSSPEEAPVVAVPFPGPEKLLLAPLAVGLEEIREALEEEGFEPVEIRVAETEPGVPLDLSAGG [r19_386_TrMRF] shows folding stability dG unfold at minimum 2 kcal/mol? False

Would you say SAGGSAGGANTVTIELPNGFRITLNDDGTITISYYDPETGELVKTVTIKLPPPPPVVVVHEDDKSAGGSAGG [r6_572_TrROS_Hall] shows folding stability dG unfold at minimum 2 kcal/mol? True

Would you say SKPILKIKINIPVLKDKNGKEIIPSPNDVLAALEKLGIPVDKAEITKIGKNTIPILILVDLVDGKAYVKDSA [r9_225_TrMRF] shows folding stability dG unfold at minimum 2 kcal/mol? False

Would you say SAGGSAGGSAGGKKLTFKAEIVSEEEIEINGKKYRIFKVKVTLPDGSKLTLTVIVELDDLSAGGSAGGSAGG [r7_846_TrROS_Hall] shows folding stability dG unfold at minimum 2 kcal/mol? True

Would you say SAGGAPNWKIEKIEIEYPGRKIEVWRHDNMWFIHIPAPPGYPIRIKIKIEPDNGETQTQERTFPIPPPSAGG [r13_191_TrROS] shows folding stability dG unfold at minimum 2 kcal/mol? False

Would you say MKIIDVVPTPDGLIVVIKVVFPNTEEAYVSASDLDKLIKEIFERFGVKPEYLKITDIKAFSPEELKEFLEES [r1_119_TrMRF] shows folding stability dG unfold at minimum 2 kcal/mol? True

Would you say SAGGSAGGSAPKILIVEDEKTGKLYAFVYDKDTKELYVAEFTYDKKTKKLTVKIKKVSLEDLSAGGSAGGSA [r18_505_TrROS_Hall] shows folding stability dG unfold at minimum 2 kcal/mol? True

Would you say SAGGSAGGSAGKPKVKKITLKNPATGETVEAEVVEVDGYLVVRVRNKDDPEKTETFVFKLSAGGSAGGSAGG [r17_73_TrROS_Hall] shows folding stability dG unfold at minimum 2 kcal/mol? True

Would you say SAGGSAGGSAVTIYIPWDEILEELGLPPEDVEYKPMKNGSYSFKYKNGKPVTIIMPPEDFKSAGGSAGGSAG [r3_477_TrROS] shows folding stability dG unfold at minimum 2 kcal/mol? False

====

Assignment: determine reported folding stability dG unfold for the given sequences.
assay: folding stability dG unfold (combined trypsin and chymotrypsin); higher = more stable
Use kcal/mol as the unit, but write only the number.

# query: folding stability dG unfold of entry SAGGSAGGSAMLYRITVRNADGEKLEIVVEMSEDEVRALAEELRKAGYEVRVEPIPEGEEPSAGGSAGGSAG [r3_35_TrROS_Hall] 4.8

# query: folding stability dG unfold of entry MRIEIRVEKVEDGFYKVTIRLEETGETLELVVPKSLEEAKAAAEELLRELFPDVKVTEIRVERVPLPEEDLS [r1_80_TrROS_Hall] 2.9

# query: folding stability dG unfold of entry SAGGSAGGMVTIASITFEEDPEGGITVTVYLPSNGKTITVPVPADTPEAEARARAEAAARAYAASAGGSAGG [r6_628_JUSTAS] 1.28

# query: folding stability dG unfold of entry SPVKWGEEKTYTYPFPDNPNYRIKIKVHVYKDPENGRPYVRMNIEVYNNGKPRKYNINMPVDQLKDLLQFSA [r9_71_TrROS] 2.57

====

assay: folding stability dG unfold from trypsin proteolysis; higher = more stable
The class of a record is decided solely by its measured folding stability dG unfold; consult class 0 (below 0.4 kcal/mol), class 1 (0.4 kcal/mol to below 2 kcal/mol), class 2 (2 kcal/mol or more)

State the band of SAGNPSLVKETIIPFTLPDGSEVKLTVKTDPSTGKVTMPIETKDEKVKAKAIELAKKIAEELGFPEVGLSAG [r5_99_JUSTAS] class 0

State the band of SAGKIKIEVEYLDPNGDWRRYEHTIPFKPNQSFEEAINELLPPGLREIKITEVDPEEGTIKIDIWIRPDSAG [r5_227_TrROS] class 2

State the band of SAMEVTVTPLPDGTTRVTLPDGVEITHPAPGTGEPVLVEVTEVPGTGTYRITIRSPAGGEELRELLVPVSAG [r14_975_JUSTAS] class 1

State the band of SAGGSAGGSAGGMIVIEVERKEGEEERKEVIVIPNDPEKAEAEAKKLAEEGPVEKVTIKKESAGGSAGGSAG [r3_310_JUSTAS] class 0

State the band of SAGGMKITLPPGAEITEVFELPDGQLLLRVRHKDTGKTEVVPASDLEIEIEPGEEVEVEIFRVPKEDLSAGG [r13_173_TrROS_Hall] class 1

State the band of SAGGPKEIIKEIAEKYGITEIMPWDDMKNMPPENPNKIHIWPDPEGHYMVMIRAPNGNKKSIEFPIESAGGS [r16_686_TrROS] class 0

State the band of SAGGSAGGMKVYEIEVPPSSGLTPEEIRARVREEIEASNNAPVEVTVEVDPNGRLTVTIKITPLSAGGSAGG [r6_819_JUSTAS] class 1

State the band of SAGGSAGGSKTKTIEIEVDGKKVRITVNEDGSVTIEVYYPGKPVKTIEIPGMSIEEILKALLESAGGSAGGS [r20_8_TrROS_Hall] class 2

State the band of SAGGSAGGSAKEKYILLKVKPGQKVEIEYENGEKKEVEVLEDGYLLIKVKEKNAKIKIKIKSAGGSAGGSAG [r3_334_TrROS_Hall] class 1

State the band of SAGGSAGGSAGGSGMVNLPEPIKVTKEEPLPDGSVRYTIEYPDSTITVFKYPDGIKIESSAGGSAGGSAGGS [r4_280_JUSTAS] class 0

State the band of SAGGMKIKLKDGSEITIGSEPGRLVIVLRPPGPRSRKVIPFPVPSKEHGFVAAVNELLSLEDIEEIEPSAGG [r13_579_TrMRF] class 0

State the band of SAGGSAGGSAGMKEGEIVEVTVPIPENGEEIKVKVVAPPSLTEEEARALAEEKAKEIYEKSAGGSAGGSAGG [r11_355_JUSTAS] class 0

State the band of SAGGMKTVEIEIPVPPGMSIEELVKKLLEELKKKKDIKEVEIEITLKDGSKIKIRVNKNGKIVKVEKLSAGG [r13_690_TrROS_Hall] class 1

State the band of SAGGSAGGSAGGPPYEVNIYIKFRPPDGKPPTFPIDVNVNDPEDAKDELEDNFPNMEIVSAGGSAGGSAGGS [r10_1248_TrROS] class 1

State the band of SKKTVYRIVIELENGEKLEIEVPLGSEVKIEKKEDGTITITVNGKKIEIKLKPGEKAKIVKIEKLPEEEESA [r9_773_TrROS_Hall] class 2

State the band of SAGGSAGGSAMVILTPDGYLKVIKSITVEEALDPETDEPVLDVKAEVEVIPLPSLDDPAFKESAGGSAGGSA [r18_6_TrMRF] class 0

State the band of SAGMTLIIRVKVYNKDGELVEEREIEVPNMSVEEIAEALKKLPNVEKVKIEVFNADGEKKEIEIEVKPSAGG [r19_269_TrROS_Hall] class 2

State the band of SAGGPKWYYITIKIPDDPKKAERLVDRLQDLFGEDVRINVNPGNNHVTVWIPNDLRPLLKDHGLEITPSAGG [r13_156_TrROS] class 2
